// provenance: patent US20200361992A1

assayed system: T1, human ferroportin (SLC40A1) fused in frame with the GFP protein, stably expressed in HEK293 cells (human, UniProt Q9NP59 1-571)
T1 sequence (looked up): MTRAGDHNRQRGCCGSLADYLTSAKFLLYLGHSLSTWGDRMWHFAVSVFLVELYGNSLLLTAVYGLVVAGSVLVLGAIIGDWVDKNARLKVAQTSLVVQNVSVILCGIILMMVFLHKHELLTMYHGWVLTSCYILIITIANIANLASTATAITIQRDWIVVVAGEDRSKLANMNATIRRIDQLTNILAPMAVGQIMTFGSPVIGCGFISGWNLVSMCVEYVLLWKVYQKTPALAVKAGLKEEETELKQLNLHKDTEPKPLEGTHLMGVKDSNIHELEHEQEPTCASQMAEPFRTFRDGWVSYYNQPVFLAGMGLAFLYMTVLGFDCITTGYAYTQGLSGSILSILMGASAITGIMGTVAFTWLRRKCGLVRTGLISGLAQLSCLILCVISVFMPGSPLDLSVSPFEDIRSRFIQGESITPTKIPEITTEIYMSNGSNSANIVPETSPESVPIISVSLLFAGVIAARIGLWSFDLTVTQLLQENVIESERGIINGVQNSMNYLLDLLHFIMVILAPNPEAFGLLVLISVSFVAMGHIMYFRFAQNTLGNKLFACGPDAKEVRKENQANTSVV
test name: cell-based or functional assay
Starred links: 1 amine or outer side, 2 acyl side, 3 side chain; linkers in the order of their positions; H or OH if unused. Positions of bridges follow the written chain, without caps; N, C: chain ends. Non-standard residues stand in square brackets, D forms with d. Groups on a side chain read outwards from the residue. *: point of attachment. PEG12 = NCCOCCOCCOCCOCCOCCOCCOCCOCCOCCOCCOCCOCCC(=O)O; γGlu = O=C(O)[C@H](CCC(=O)[*:2])N[*:1]; Palmitoyl = CCCCCCCCCCCCCCCC(=O)*; NMeF = CN[C@@H](Cc1ccccc1)C(=O)O; Isovaleryl = CC(C)CC(=O)*
Would you mind telling me the reported FPN IC50 of each entry?
State the answer as a number, implicitly in nM.

In: Query: FPN IC50; subject: Isovaleryl-DTHFPCI[dK]([PEG12-Palmitoyl])F[dK]C-NH2 (disulfide 6-11; SMILES CCCCCCCCCCCCCCCC(=O)NCCOCCOCCOCCOCCOCCOCCOCCOCCOCCOCCOCCOCCC(=O)NCCCC[C@H]1NC(=O)[C@H]([C@@H](C)CC)NC(=O)[C@@H](NC(=O)[C@@H]2CCCN2C(=O)[C@H](Cc2ccccc2)NC(=O)[C@H](Cc2c[nH]cn2)NC(=O)[C@@H](NC(=O)[C@H](CC(=O)O)NC(=O)CC(C)C)[C@@H](C)O)CSSC[C@@H](C(N)=O)NC(=O)[C@@H](CCCCN)NC(=O)[C@H](Cc2ccccc2)NC1=O) [Compd ID 225]
Out: 26

In: Try this binder next: Isovaleryl-DTHFPCI[dK]([γGlu-Palmitoyl])[NMeF]GC-NH2 (disulfide 6-11; SMILES CCCCCCCCCCCCCCCC(=O)N[C@@H](CCC(=O)NCCCC[C@H]1NC(=O)[C@H]([C@@H](C)CC)NC(=O)[C@@H](NC(=O)[C@@H]2CCCN2C(=O)[C@H](Cc2ccccc2)NC(=O)[C@H](Cc2c[nH]cn2)NC(=O)[C@@H](NC(=O)[C@H](CC(=O)O)NC(=O)CC(C)C)[C@@H](C)O)CSSC[C@@H](C(N)=O)NC(=O)CNC(=O)[C@H](Cc2ccccc2)N(C)C1=O)C(=O)O) [Compd ID 212]
Out: 403

In: For Isovaleryl-DTHFPCI[dK]([PEG12-Palmitoyl])FKC-NH2 (disulfide 6-11; SMILES CCCCCCCCCCCCCCCC(=O)NCCOCCOCCOCCOCCOCCOCCOCCOCCOCCOCCOCCOCCC(=O)NCCCC[C@H]1NC(=O)[C@H]([C@@H](C)CC)NC(=O)[C@@H](NC(=O)[C@@H]2CCCN2C(=O)[C@H](Cc2ccccc2)NC(=O)[C@H](Cc2c[nH]cn2)NC(=O)[C@@H](NC(=O)[C@H](CC(=O)O)NC(=O)CC(C)C)[C@@H](C)O)CSSC[C@@H](C(N)=O)NC(=O)[C@H](CCCCN)NC(=O)[C@H](Cc2ccccc2)NC1=O) [Compd ID 224] then?
Out: 33

In: Similarly, Isovaleryl-DTHFPCIK([γGlu-Palmitoyl])FEC-NH2 (disulfide 6-11; SMILES CCCCCCCCCCCCCCCC(=O)N[C@@H](CCC(=O)NCCCC[C@@H]1NC(=O)[C@H]([C@@H](C)CC)NC(=O)[C@@H](NC(=O)[C@@H]2CCCN2C(=O)[C@H](Cc2ccccc2)NC(=O)[C@H](Cc2c[nH]cn2)NC(=O)[C@@H](NC(=O)[C@H](CC(=O)O)NC(=O)CC(C)C)[C@@H](C)O)CSSC[C@@H](C(N)=O)NC(=O)[C@H](CCC(=O)O)NC(=O)[C@H](Cc2ccccc2)NC1=O)C(=O)O) [Compd ID 206] ?
Out: 267

In: Also check Isovaleryl-DTHFPCIK([γGlu-Palmitoyl])FCK-NH2 (disulfide 6-10; SMILES CCCCCCCCCCCCCCCC(=O)N[C@@H](CCC(=O)NCCCC[C@@H]1NC(=O)[C@H]([C@@H](C)CC)NC(=O)[C@@H](NC(=O)[C@@H]2CCCN2C(=O)[C@H](Cc2ccccc2)NC(=O)[C@H](Cc2c[nH]cn2)NC(=O)[C@@H](NC(=O)[C@H](CC(=O)O)NC(=O)CC(C)C)[C@@H](C)O)CSSC[C@@H](C(=O)N[C@@H](CCCCN)C(N)=O)NC(=O)[C@H](Cc2ccccc2)NC1=O)C(=O)O) [Compd ID 210]
Out: 60
